Reference source for all entries: paper PMC7961048

Target of assay: HPV33 E6 phospho-PBM peptide p33E6 (human papillomavirus type 33)
Method: FP
Metric name: log10 Kd (log10 of the value in µM)
Parameter value (number): base-10 log of Kd in µM.

Quickly give me recorded log10 Kd for full-length human 14-3-3η fused to the C terminus of MBP (natural protein) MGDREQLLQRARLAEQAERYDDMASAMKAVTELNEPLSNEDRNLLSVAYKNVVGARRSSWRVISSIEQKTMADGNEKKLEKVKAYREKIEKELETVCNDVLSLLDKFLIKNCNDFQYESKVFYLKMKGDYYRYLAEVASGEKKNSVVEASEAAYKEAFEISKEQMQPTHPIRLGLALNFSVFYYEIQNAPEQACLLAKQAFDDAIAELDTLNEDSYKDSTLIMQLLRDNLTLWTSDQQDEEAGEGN
0.30
